measured.on: Cbl-b (aa36-427) (Homo sapiens)
Construct: Cbl-b (aa36-427, in-house); made in house
Sequence (Q13191 36-427): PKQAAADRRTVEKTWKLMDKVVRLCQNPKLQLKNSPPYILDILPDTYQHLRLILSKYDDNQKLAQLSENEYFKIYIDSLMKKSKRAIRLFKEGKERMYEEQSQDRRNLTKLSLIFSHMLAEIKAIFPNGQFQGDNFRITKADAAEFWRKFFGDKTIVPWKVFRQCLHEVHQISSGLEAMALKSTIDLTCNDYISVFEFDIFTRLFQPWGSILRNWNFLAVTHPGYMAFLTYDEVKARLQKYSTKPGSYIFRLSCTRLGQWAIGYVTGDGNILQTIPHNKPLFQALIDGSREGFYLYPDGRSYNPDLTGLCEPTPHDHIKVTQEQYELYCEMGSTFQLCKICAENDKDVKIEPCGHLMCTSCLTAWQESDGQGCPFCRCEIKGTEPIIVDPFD
experimental.protocol: Co-expressed Cbl-b with BirA biochemical assay (CBLB/E2-Ub binding, HTRF)
condition.set: 0.6 nM Cbl-b co-expressed with BirA, HTRF; read-out: co-express CBLB/E2-Ub-binding assay IC50
Binary label based on IC50 with cut-off 2 nM: below gives T, not below gives F.

Some solved cases for reference:
structure.smiles	class.assignment
C[C@H](NCc1cc(C(=O)Nc2cccc([C@]3(c4nncn4C)C[C@@H](C)C3)c2)nc2cc[nH]c12)C1CCC1	T
C[C@H]1CCCN(Cc2cc(C(=O)Nc3cccc([C@]4(c5nncn5C)C[C@@H](CC#N)C4)c3)n3ncnc3c2)C1	F
C[C@H]1CCCN(Cc2cc(C(=O)Nc3cccc(C4(Cc5nncn5C)COC4)c3)c3nc(F)cn3c2)C1	F
C[C@@H]1CN(Cc2cc(C(=O)Nc3cncc([C@]4(c5nncn5C)C[C@@H](C)C4)c3)c3nccn3c2)CC[C@@H]1F	T
Cn1cnnc1[C@]1(c2cccc(NC(=O)c3cc(CN[C@H]4C[C@@H](C)C4)c4[nH]ccc4n3)c2)C[C@H](C)C1	T

INPUT: Report whether reported IC50 is lower than 2 nM (strictly) for Cn1cnnc1[C@]1(c2cccc(NC(=O)c3cc(CNC4(C)CCC4)cn4c(F)cnc34)c2)C[C@H](CC#N)C1
OUTPUT: T

INPUT: Please state whether IC50 is below 2 nM for Cn1cnnc1[C@]1(c2cccc(NC(=O)c3cc(CNC4(C)CCC4)cn4ccnc34)c2)C[C@H](C)C1
OUTPUT: F

---

measured.on: Cbl (aa49-434) (Homo sapiens)
Construct: Cbl (aa49-434, in-house); made in house
Sequence (P22681 49-434): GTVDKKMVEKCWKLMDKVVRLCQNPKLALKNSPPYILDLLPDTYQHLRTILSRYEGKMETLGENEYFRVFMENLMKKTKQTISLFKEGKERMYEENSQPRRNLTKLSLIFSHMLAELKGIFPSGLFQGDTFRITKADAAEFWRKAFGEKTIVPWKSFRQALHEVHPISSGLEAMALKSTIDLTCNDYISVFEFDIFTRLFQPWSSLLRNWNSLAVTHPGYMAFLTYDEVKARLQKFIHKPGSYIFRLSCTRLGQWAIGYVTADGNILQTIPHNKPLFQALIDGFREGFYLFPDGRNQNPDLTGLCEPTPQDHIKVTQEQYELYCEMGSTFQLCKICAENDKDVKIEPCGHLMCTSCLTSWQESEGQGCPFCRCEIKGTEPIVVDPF
experimental.protocol: Co-expressed Cbl with BirA biochemical assay (CBL/E2-Ub binding, HTRF)
condition.set: 0.6 nM Cbl co-expressed with BirA, read-out: co-express CBL/E2-Ub-binding assay IC50
Here the recorded pIC50 is given for each entry.
# pIC50 is unitless: minus log10 of the molar concentration; print number only

Example cases with answers are listed next.
structure.smiles	pIC50
C[C@H]1CCCN(Cc2cc(C(=O)Nc3cccc([C@]4(c5nncn5C)C[C@@H](CC#N)C4)c3)nc3cc[nH]c23)C1	7.80
C[C@@H]1CN(Cc2cc(C(=O)Nc3cncc([C@]4(c5nncn5C)C[C@@H](C)C4)c3)c3nccn3c2)CC[C@@H]1F	8.22
Cn1cnnc1[C@]1(c2cccc(NC(=O)c3cc(CNCC4CCC(F)(F)CC4)c4c(n3)C(C)(C)CO4)c2)C[C@H](CC#N)C1	7.10
Cn1cnnc1[C@]1(c2cccc(NC(=O)c3cc(CNC4(C)CC4)cn4c(Cl)cnc34)c2)C[C@H](C)C1	8.55

INPUT: Consider the compound Cn1cnnc1[C@]1(c2cccc(NC(=O)c3cc(CNCC4(C)CCCC4)cn4c(Cl)cnc34)c2)C[C@H](CC#N)C1 . State its measured pIC50.
OUTPUT: 8.62

INPUT: Supply measured pIC50 of Cn1cnnc1[C@]1(c2cncc(NC(=O)c3cc(CNC4(C)CC4)cn4c(Cl)cnc34)c2)C[C@H](C)C1 in your reply.
OUTPUT: 8.55

INPUT: # return recorded pIC50 for input Cc1cnc2c(C(=O)Nc3cccc([C@]4(c5nncn5C)C[C@@H](C)C4)c3)cc(CNCC3CCC3)cn12
OUTPUT: 8.11

INPUT: Identify measured pIC50 associated with C[C@H](NCc1cc(C(=O)Nc2cccc([C@]3(c4nncn4C)C[C@@H](C)C3)c2)nc2c1CCC2(F)F)C1CCC1
OUTPUT: 8.14

INPUT: Read off the recorded pIC50 for CC(C)CNCc1cc(C(=O)Nc2cncc([C@]3(c4nncn4C)C[C@@H](C)C3)c2)nc2c1CCC2(F)F
OUTPUT: 7.80

INPUT: // Input: C[C@H](NCc1cc(C(=O)Nc2cncc([C@]3(c4nncn4C)C[C@@H](C)C3)c2)c2ncc(Cl)n2c1)C1CC1 . Output its pIC50 only.
OUTPUT: 8.92

INPUT: Give the reported pIC50 for this compound. Cn1cnnc1[C@]1(c2cccc(NC(=O)c3cc(CNCC4CCC4)c4c(n3)C(C)(C)CN4)c2)C[C@H](CC#N)C1
OUTPUT: 8.48

INPUT: Annotate the compound Cc1c[nH]c2c(CN3CCC[C@H](C)C3)cc(C(=O)Nc3cccc([C@]4(c5nncn5C)C[C@@H](CC#N)C4)c3)nc12 with its measured pIC50.
OUTPUT: 7.81

INPUT: Provide pIC50 value for the following compound: Cn1cnnc1[C@]1(c2cncc(NC(=O)c3cc(CNC4(C)CCC4)cn4c(F)cnc34)c2)C[C@H](C)C1
OUTPUT: 8.08
